- System: LTD4-induced contraction of strips of guinea pig lung
- method: inhibition of LTD4-induced contraction of strips of guinea pig lung
- Type: cell-based
- testParameters: Cavia porcellus; LTD4 3 ng/ml; indomethacin-pretreated strips (10^-6 g/ml); test substance added after maximum contraction plateau; 37° C.; read-out: IC50 with respect to LTD4
metric: IC50 (µg/mL)
// note: answer is a bare numeric in µg/mL

COC(=O)CCSCC(O)Cc1ccccc1OCc1ccccc1 (racemic) [Compound A]	0.6
COC(=O)CCSCC(O)Cc1cc(Cl)ccc1OCc1ccccc1 (racemic) [Compound D]	3

Below: the item to evaluate.
**Query** State the recorded IC50 for this entry: COC(=O)CCSCC(O)Cc1cccc(C2CCCC2)c1OCc1ccccc1 (racemic) [Compound B]
**Result** 1

====

IC50 values, listed per item
- Test system: LTE4-induced contraction of strips of guinea pig lung
- method: inhibition of LTE4-induced contraction of strips of guinea pig lung
- Format: cell-based
- testParameters: Cavia porcellus; LTE4 3 ng/ml; indomethacin-pretreated strips (10^-6 g/ml); test substance added after maximum contraction plateau; 37° C.; read-out: IC50 with respect to LTE4

COC(=O)CCSCC(O)Cc1cccc(C2CCCC2)c1OCc1ccccc1 (racemic) [Compound B]	3 µg/mL
COC(=O)CCSCC(O)Cc1cc(Cl)ccc1OCc1ccccc1 (racemic) [Compound D]	1 to 3 µg/mL
O=C(O)CCSCC(O)Cc1cccc(C2CCCC2)c1OCc1ccccc1 (racemic) [Compound C]	3 µg/mL

**Query** I'd like to know its IC50. The compound in question is COC(=O)CCSCC(O)Cc1ccccc1OCc1ccccc1 (racemic) [Compound A]
**Result** 0.6 to 1 µg/mL

**Query** Give its IC50 value. Item: OCCSCC(O)Cc1cccc(C2CCCC2)c1OCc1ccccc1 (racemic) [Compound E]
**Result** 1 to 3 µg/mL

====

- System: LTC4-induced contraction of strips of guinea pig lung
- method: inhibition of LTC4-induced contraction of strips of guinea pig lung
- Type: cell-based
- testParameters: Cavia porcellus; LTC4 3 ng/ml; indomethacin-pretreated strips (10^-6 g/ml); test substance added after maximum contraction plateau; 37° C.; read-out: IC50 with respect to LTC4
metric: IC50

# count of solved cases: 3
COC(=O)CCSCC(O)Cc1ccccc1OCc1ccccc1 (racemic)	0.6 to 1 µg/mL
COC(=O)CCSCC(O)Cc1cc(Cl)ccc1OCc1ccccc1 (racemic)	6 to 10 µg/mL
COC(=O)CCSCC(O)Cc1cccc(C2CCCC2)c1OCc1ccccc1 (racemic)	0.6 µg/mL

**Query** Query (compound): O=C(O)CCSCC(O)Cc1cccc(C2CCCC2)c1OCc1ccccc1 (racemic) ; field requested: IC50
**Result** 3 to 6 µg/mL

**Query** # query: IC50 of entry OCCSCC(O)Cc1cccc(C2CCCC2)c1OCc1ccccc1 (racemic)
**Result** 6 to 10 µg/mL

Each recorded value in this set is attributed to patent US4855323A.
